So I've got a bunch of molecules here, and I need their IC50 values.
Biological target: human PI 3-kinase p120γ (Homo sapiens)
Construct: purchased Millipore Corporation
Assay: PI 3-kinase p120γ enzyme activity inhibition test
Assay type: biochemical
Conditions: ATP 10.0 μM, PIP2-PS 5.0 μM, 30° C., 2 hours; read-out: PI3Kγ (IC50 value class)
Procedure: […] PIP2-PS was prepared by mixing 500 μM of PIP2 and 2.5 nM of PS and sonicating the mixture for 40 minutes while ice cooling to cause micellization. […] The radioactivity was measured using Top Count NXT (manufactured by PerkinElmer Co., Ltd.), whereby the phosphorylated amount (a) of PIP2-PS at the time of compound addition was calculated. The same procedure was carried out in the absence of the test compound and the phosphorylated amount (b) of PIP2-PS was calculated. […]

- molecule: "CC(=O)Nc1nc(C)c(-c2nc(Cn3cccn3)no2)s1 [Example 99]"
  attribute_measured: "IC50"
  result_value: "500 to 10000 nM"
- molecule: "CC(=O)Nc1nc(C)c(-c2nc(N3CC[C@@H](O)C3)no2)s1 [Example 103]"
  attribute_measured: "IC50"
  result_value: "100 to 500 nM"
- molecule: "Cc1nc(NC(=O)NCCC(=O)NC(C)(C)C)sc1-c1nc(CC(C)(C)CO)no1 [Example 161]"
  attribute_measured: "IC50"
  result_value: "< 100 nM"
- molecule: "CC(=O)Nc1nc(C)c(-c2nc(C(C)(C)CCO)no2)s1 [Example 73]"
  attribute_measured: "IC50"
  result_value: "< 100 nM"

// for each molecule below, give its IC50
1. CC(=O)Nc1nc(C)c(-c2nc(-c3cncnc3)no2)s1 [Example 3]
2. CC(=O)Nc1nc(C)c(-c2nc(CC(C)(CO)CO)no2)s1 [Example 42]

Resp:
1: < 100 nM; 2: < 100 nM

// for each molecule below, give its IC50
1. CC(=O)CCc1noc(-c2sc(NC(C)=O)nc2C)n1 [Example 66]
2. CC(=O)Nc1nc(C)c(-c2nc(C3CCC3)no2)s1 [Example 26]
3. Cc1nc(NC(=O)NCCC(=O)N2CCC(O)CC2)sc1-c1nc(CC(F)(F)F)no1 [Example 166]
4. Cc1nc(NC(=O)NCCC(=O)O)sc1-c1nc(-c2cccnc2)no1 [Example 136]
5. CC(=O)Nc1nc(C)c(-c2nc(CCC(C)C)no2)s1 [Example 82]

Resp:
1. 100 to 500 nM
2. < 100 nM
3. < 100 nM
4. < 100 nM
5. < 100 nM

====

Target: human PI 3-kinase p120γ (Homo sapiens, UniProt P48736)
Construct: purchased Millipore Corporation
Sequence (P48736 whole entry): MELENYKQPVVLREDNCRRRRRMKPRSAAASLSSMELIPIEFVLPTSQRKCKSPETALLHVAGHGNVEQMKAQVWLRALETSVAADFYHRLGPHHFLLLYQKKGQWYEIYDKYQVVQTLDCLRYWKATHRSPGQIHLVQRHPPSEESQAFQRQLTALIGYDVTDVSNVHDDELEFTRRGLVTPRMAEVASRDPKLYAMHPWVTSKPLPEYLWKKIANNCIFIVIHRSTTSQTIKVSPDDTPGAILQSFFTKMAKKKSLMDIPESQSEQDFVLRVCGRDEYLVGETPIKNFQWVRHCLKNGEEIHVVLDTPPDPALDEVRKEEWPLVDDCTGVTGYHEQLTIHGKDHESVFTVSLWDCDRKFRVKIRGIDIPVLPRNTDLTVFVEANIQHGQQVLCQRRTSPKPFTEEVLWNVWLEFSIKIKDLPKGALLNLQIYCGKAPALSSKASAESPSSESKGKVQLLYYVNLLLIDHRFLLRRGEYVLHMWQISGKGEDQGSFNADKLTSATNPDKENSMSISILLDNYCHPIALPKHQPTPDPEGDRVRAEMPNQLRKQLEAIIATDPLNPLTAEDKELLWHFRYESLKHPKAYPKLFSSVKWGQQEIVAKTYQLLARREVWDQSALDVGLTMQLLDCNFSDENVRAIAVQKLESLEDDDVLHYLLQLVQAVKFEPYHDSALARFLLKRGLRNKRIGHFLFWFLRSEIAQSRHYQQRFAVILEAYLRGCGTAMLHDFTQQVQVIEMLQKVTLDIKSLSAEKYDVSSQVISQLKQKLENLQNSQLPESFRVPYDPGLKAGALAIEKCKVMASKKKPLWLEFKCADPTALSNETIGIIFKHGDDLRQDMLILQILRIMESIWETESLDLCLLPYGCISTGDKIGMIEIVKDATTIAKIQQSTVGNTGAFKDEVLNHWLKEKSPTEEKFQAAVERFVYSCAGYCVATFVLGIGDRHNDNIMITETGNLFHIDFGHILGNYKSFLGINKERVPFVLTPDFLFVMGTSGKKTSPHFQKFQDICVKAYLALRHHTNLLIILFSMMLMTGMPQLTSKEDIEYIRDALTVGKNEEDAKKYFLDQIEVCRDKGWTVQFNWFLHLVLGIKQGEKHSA
Experiment: PI 3-kinase p120γ enzyme activity inhibition test
Format: biochemical
Settings: ATP 10.0 μM, PIP2-PS 5.0 μM, 30° C., 2 hours; read-out: PI3Kγ (IC50 value class)
Method: […] PIP2-PS was prepared by mixing 500 μM of PIP2 and 2.5 nM of PS and sonicating the mixture for 40 minutes while ice cooling to cause micellization. […] The radioactivity was measured using Top Count NXT (manufactured by PerkinElmer Co., Ltd.), whereby the phosphorylated amount (a) of PIP2-PS at the time of compound addition was calculated. The same procedure was carried out in the absence of the test compound and the phosphorylated amount (b) of PIP2-PS was calculated. […]
pIC50: −log10 of the molar value.
So I've got a bunch of compounds here, and I need their pIC50 values.

Known pIC50 results, listed for orientation:
- compound: "Cc1nc(NC(=O)NCCCN2CCOCC2)sc1-c1nc(-c2cccnc2)no1"
  attribute_measured: "pIC50"
  result_value: "> 7.00"
- compound: "CCOC(=O)[C@H]1CCCC1NC(=O)Nc1nc(C)c(-c2nc(-c3cccnc3)no2)s1 (stereo partly drawn)"
  attribute_measured: "pIC50"
  result_value: "> 7.00"
- compound: "Cc1nc(NC(=O)NCC(C)O)sc1-c1nc(-c2cccnc2)no1 (stereo not drawn)"
  attribute_measured: "pIC50"
  result_value: "> 7.00"

// for each compound below, give its pIC50
1. Cc1nc(NC(=O)NCCN2CCOCC2)sc1-c1nc(-c2cccnc2)no1
2. Cc1nc(NC(=O)NCCC(=O)OCCO)sc1-c1nc(-c2cccnc2)no1
3. CC(=O)Nc1nc(C)c(-c2nc(CC3CC3)no2)s1
4. Cc1nc(NC(=O)NCCO)sc1-c1nc(-c2cccnc2)no1

Resp:
1: > 7.00; 2: > 7.00; 3: > 7.00; 4: > 7.00

// for each compound below, give its pIC50
1. CC(=O)Nc1nc(C)c(-c2nc(CCc3cccnc3)no2)s1
2. Cc1nc(NC(=O)N2CCC(O)CC2)sc1-c1nc(-c2cccnc2)no1

Resp:
6.30 to 7.00
5.00 to 6.30

====

target: human PI 3-kinase p120γ (Homo sapiens); construct: purchased Millipore Corporation; experiment: PI 3-kinase p120γ enzyme activity inhibition test; assay type: biochemical; conditions: ATP 10.0 μM, PIP2-PS 5.0 μM, 30° C., 2 hours; read-out: PI3Kγ (IC50 value class)
pIC50: −log10 of the molar value.
attribute_measured: pIC50

Known pIC50 results, listed for orientation:
- compound: "CC(=O)Nc1nc(C)c(-c2nc(C3CC3(C)C)no2)s1 (stereo not shown)"
  attribute_measured: "pIC50"
  result_value: "> 7.00"
- compound: "Cc1nc(NC(=O)NCCCOC(C)(C)C)sc1-c1nc(-c2cccnc2)no1"
  attribute_measured: "pIC50"
  result_value: "> 7.00"
- compound: "CC(=O)Nc1nc(C)c(-c2nc(CCCCO)no2)s1"
  attribute_measured: "pIC50"
  result_value: "6.30 to 7.00"

// for each compound below, give its pIC50
1. COCc1noc(-c2sc(NC(C)=O)nc2C)n1
2. Cc1nc(NC(=O)NCCC(=O)OC(C)(C)C)sc1-c1nc(C2CCCCC2)no1
3. CC(=O)Nc1nc(C)c(-c2nc(CCO)no2)s1
4. CC(=O)Nc1nc(C)c(-c2nc(-c3cc[nH]c(=O)c3)no2)s1
5. Cc1nc(NC(=O)NCC(C)O)sc1-c1nc(-c2cncnc2)no1 (stereo not shown)
6. CC(=O)Nc1nc(C)c(-c2nc(CC(C)(C)C(O)c3ccccc3)no2)s1 (stereo not shown)
7. CC(=O)Nc1nc(C)c(-c2nc(-c3cccc(CCO)c3)no2)s1

Resp:
6.30 to 7.00
> 7.00
6.30 to 7.00
6.30 to 7.00
> 7.00
6.30 to 7.00
> 7.00

// for each compound below, give its pIC50
1. CC(=O)Nc1nc(C)c(-c2nc(CC(C)(C)S(=O)(=O)NC(C)(C)C)no2)s1
2. Cc1nc(NC(=O)NCCS(=O)(=O)NC(C)(C)C)sc1-c1nc(-c2cccnc2)no1
3. CC(=O)Nc1nc(C)c(-c2nc(CC3(C)COC3)no2)s1
4. Cc1nc(NC(=O)NCCNC(=O)OC(C)(C)C)sc1-c1nc(-c2cccnc2)no1
5. CC(=O)Nc1nc(C)c(-c2nc(C3CC3)no2)s1
6. Cc1nc(NC(=O)NCCC(=O)N2CCOCC2)sc1-c1nc(-c2cccnc2)no1

Resp:
1: 6.30 to 7.00; 2: > 7.00; 3: > 7.00; 4: > 7.00; 5: > 7.00; 6: > 7.00

// for each compound below, give its pIC50
1. CC(=O)Nc1nc(C)c(-c2nc(C(C)(C)C)no2)s1
2. COC(=O)c1cncc(-c2noc(-c3sc(NC(C)=O)nc3C)n2)c1
3. CC(=O)Nc1nc(C)c(-c2nc(CC(C)(C)COS(C)(=O)=O)no2)s1

Resp:
["> 7.00", "> 7.00", "6.30 to 7.00"]

====

So I've got a bunch of compounds here, and I need their IC50 values.
molecular target: human PI 3-kinase p120γ (Homo sapiens, UniProt P48736); construct: purchased Millipore Corporation; test: PI 3-kinase p120γ enzyme activity inhibition test; type: biochemical; conditions: ATP 10.0 μM, PIP2-PS 5.0 μM, 30° C., 2 hours; read-out: PI3Kγ (IC50 value class)

- compound: "Cc1nc(NC(=O)NCCc2cn(C(C)C)cn2)sc1-c1nc(CC(C)(C)CO)no1"
  result_value: "< 100 nM"
- compound: "COCC(=O)Nc1nc(C)c(-c2nc(-c3cccnc3)no2)s1"
  result_value: "< 100 nM"
- compound: "CC(=O)Nc1nc(C)c(-c2nc(CC(C)(C)C(C)(C)O)no2)s1"
  result_value: "< 100 nM"

// for each compound below, give its IC50
1. CC(=O)Nc1nc(C)c(-c2nc(CC(C)(C)C)no2)s1
2. Cc1nc(NC(=O)NCCC(=O)NC(C)(C)C)sc1-c1nc(-c2cccnc2)no1
3. CC(=O)Nc1nc(C)c(-c2nc(C3CCCC3)no2)s1
4. CC(=O)Nc1nc(C)c(-c2nc(CC(C)(C)C(C)O)no2)s1 (stereo not shown)
5. CC(=O)Nc1nc(C)c(-c2nc(C(=O)N3CCOCC3)no2)s1
6. CCn1cnc(CCNC(=O)Nc2nc(C)c(-c3nc(-c4cccnc4)no3)s2)c1
7. CC(=O)Nc1nc(C)c(-c2nc(-c3cccnc3)no2)s1

Resp:
["< 100 nM", "< 100 nM", "< 100 nM", "< 100 nM", "500 to 10000 nM", "< 100 nM", "< 100 nM"]

// for each compound below, give its IC50
1. COC(C)(C)Cc1noc(-c2sc(NC(C)=O)nc2C)n1
2. Cc1nc(NC(=O)NCCCC(=O)OC(C)(C)C)sc1-c1nc(-c2cccnc2)no1
3. CC(=O)Nc1nc(C)c(-c2nc(CCN3CCCC3=O)no2)s1
4. CCOC(=O)C(C)(C)Cc1noc(-c2sc(NC(C)=O)nc2C)n1
5. Cc1nc(NC(N)=O)sc1-c1nc(-c2cccnc2)no1
6. CC(=O)Nc1nc(C)c(-c2nc(CC(F)(F)F)no2)s1
7. COCC(C)(C)Cc1noc(-c2sc(NC(C)=O)nc2C)n1

Resp:
["100 to 500 nM", "< 100 nM", "500 to 10000 nM", "100 to 500 nM", "< 100 nM", "< 100 nM", "< 100 nM"]

// for each compound below, give its IC50
1. Cc1nc(NC(=O)NCCC(=O)NC(C)(CO)CO)sc1-c1nc(CC(F)(F)F)no1
2. CCC(O)C(C)(C)Cc1noc(-c2sc(NC(C)=O)nc2C)n1 (stereo not shown)

Resp:
1: < 100 nM; 2: < 100 nM

All values here come from patent US8637557B2.
